Biological target: Cyclin-dependent kinase 1 (Homo sapiens, UniProt P06493)
Sequence (P06493 whole entry): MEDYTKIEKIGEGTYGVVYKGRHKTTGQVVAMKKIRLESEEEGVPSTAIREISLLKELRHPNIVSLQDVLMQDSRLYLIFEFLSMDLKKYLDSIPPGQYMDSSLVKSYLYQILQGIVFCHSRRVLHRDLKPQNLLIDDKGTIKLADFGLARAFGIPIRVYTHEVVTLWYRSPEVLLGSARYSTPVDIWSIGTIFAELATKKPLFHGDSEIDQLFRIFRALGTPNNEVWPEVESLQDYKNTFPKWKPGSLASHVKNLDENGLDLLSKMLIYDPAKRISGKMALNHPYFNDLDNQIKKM
MEASURED PARAMETER: Ki (nM)
Response body: numeric value in nM, unit text excluded.

Consider the molecule Cn1cc(-c2[nH]c3cc(NC(=O)[C@H](N)C4CCCCC4)cc4c3c2C=NNC4=O)cn1 and give its measured Ki.
9.9

* * *

Assay: Cmax in nu/nu mouse at 40 mg/kg, ip by LCMS analysis
Format: ADME, organism-based
Settings: in vivo
MEASURED PARAMETER: Cmax (ng/mL)
Response body: numeric value in ng/mL, unit text excluded.

Consider the compound Cn1cc(-c2[nH]c3cc(NC(=O)[C@H](N)C4CCCCC4)cc4c3c2C=NNC4=O)cn1 and give its measured Cmax.
6780

* * *

Test system: COLO 205
Assay: Antiproliferative activity against human COLO 205 cells deficit of p53 expression assessed as inhibition of cell growth measured after 96 hrs by MTT assay
Assay type: functional, cell-based
Settings: COLO 205, 96 h
MEASURED PARAMETER: pIC50
Note on pIC50: it is the negative log10 of concentration, concentration in mol/L.

Consider the compound Cn1cc(-c2[nH]c3cc(NC(=O)[C@H](N)C4CCCCC4)cc4c3c2C=NNC4=O)cn1 and give its measured pIC50.
5.89

* * *

Test: Volume of distribution at steady state in Sprague-Dawley rat at 4 mg/kg, iv administered as bolus dose by LCMS analysis
Format: ADME, organism-based
Conditions: in vivo, read-out: Vdss
MEASURED PARAMETER: Vd (L/kg)
Response body: numeric value in L/kg, unit text excluded.

Consider the compound Cn1cc(-c2[nH]c3cc(NC(=O)[C@H](N)C4CCCCC4)cc4c3c2C=NNC4=O)cn1 and give its measured Vd.
0.7

* * *

Target: Macrophage colony-stimulating factor 1 receptor (Homo sapiens, UniProt P07333)
Sequence (P07333 whole entry): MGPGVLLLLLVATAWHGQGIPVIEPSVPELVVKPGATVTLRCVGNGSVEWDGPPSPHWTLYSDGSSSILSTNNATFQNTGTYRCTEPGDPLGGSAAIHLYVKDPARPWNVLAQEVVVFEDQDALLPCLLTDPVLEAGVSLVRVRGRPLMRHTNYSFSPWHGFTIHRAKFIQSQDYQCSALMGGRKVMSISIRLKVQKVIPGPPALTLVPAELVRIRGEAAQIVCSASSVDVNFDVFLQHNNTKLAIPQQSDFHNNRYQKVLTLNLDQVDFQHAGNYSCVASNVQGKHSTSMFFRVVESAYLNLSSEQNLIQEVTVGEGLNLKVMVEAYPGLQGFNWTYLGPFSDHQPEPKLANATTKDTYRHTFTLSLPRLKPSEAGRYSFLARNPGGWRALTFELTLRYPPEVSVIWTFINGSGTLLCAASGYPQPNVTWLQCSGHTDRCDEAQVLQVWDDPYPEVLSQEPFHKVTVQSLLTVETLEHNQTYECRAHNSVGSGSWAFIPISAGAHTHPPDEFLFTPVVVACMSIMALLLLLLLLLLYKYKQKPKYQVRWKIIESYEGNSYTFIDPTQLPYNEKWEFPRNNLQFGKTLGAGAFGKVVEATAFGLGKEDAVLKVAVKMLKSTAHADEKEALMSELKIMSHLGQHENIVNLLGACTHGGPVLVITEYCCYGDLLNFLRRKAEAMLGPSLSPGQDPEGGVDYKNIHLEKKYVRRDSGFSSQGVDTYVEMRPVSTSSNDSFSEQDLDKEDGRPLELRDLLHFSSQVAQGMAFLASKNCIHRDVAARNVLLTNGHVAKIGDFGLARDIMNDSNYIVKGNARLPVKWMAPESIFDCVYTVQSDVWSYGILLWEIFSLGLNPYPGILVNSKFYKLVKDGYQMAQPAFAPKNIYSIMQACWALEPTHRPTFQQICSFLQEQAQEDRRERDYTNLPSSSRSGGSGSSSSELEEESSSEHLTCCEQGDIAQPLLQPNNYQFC
MEASURED PARAMETER: pIC50
Note on pIC50: it is the negative log10 of concentration, concentration in mol/L.

Consider the compound Cn1cc(-c2[nH]c3cc(NC(=O)[C@H](N)C4CCCCC4)cc4c3c2C=NNC4=O)cn1 and give its measured pIC50.
7.70

* * *

Target: Vascular endothelial growth factor receptor 2 (Homo sapiens)
Sequence (P35968 whole entry): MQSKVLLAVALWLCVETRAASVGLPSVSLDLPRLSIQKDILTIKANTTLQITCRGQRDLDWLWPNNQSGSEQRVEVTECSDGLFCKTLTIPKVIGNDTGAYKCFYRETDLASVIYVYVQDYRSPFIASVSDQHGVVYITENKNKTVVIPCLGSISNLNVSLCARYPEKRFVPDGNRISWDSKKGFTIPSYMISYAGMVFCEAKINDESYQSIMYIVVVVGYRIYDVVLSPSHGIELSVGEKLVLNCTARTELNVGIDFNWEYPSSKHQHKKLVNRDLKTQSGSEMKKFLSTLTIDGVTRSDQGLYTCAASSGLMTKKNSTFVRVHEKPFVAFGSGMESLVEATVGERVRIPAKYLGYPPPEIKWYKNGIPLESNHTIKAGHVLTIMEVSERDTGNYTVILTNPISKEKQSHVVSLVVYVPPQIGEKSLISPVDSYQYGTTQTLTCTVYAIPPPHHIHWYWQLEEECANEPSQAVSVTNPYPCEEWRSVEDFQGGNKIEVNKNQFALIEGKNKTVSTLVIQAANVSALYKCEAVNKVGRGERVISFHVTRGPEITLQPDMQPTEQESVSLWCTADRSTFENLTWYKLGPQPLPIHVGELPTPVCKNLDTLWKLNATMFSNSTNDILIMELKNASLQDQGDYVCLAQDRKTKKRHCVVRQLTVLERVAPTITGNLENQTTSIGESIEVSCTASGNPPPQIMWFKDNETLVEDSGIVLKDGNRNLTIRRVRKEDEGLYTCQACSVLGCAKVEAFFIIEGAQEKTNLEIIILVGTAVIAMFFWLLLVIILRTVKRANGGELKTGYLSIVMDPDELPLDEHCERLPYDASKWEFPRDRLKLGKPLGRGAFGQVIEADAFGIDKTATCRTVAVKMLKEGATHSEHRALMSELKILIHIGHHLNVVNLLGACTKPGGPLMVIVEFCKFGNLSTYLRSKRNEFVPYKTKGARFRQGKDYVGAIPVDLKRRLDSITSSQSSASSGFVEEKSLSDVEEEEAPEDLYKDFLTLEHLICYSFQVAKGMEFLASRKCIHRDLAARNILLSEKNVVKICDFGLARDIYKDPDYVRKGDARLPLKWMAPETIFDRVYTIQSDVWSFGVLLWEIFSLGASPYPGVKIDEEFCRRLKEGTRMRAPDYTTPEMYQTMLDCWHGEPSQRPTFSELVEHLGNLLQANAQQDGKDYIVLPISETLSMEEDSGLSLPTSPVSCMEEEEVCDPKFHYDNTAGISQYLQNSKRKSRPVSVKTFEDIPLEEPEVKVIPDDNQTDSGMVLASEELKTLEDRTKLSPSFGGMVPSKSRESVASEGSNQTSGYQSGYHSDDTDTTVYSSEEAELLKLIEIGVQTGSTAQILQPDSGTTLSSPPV
MEASURED PARAMETER: pKi
Note on pKi: it is the negative log10 of concentration, concentration in mol/L.

Consider the compound Cn1cc(-c2[nH]c3cc(NC(=O)[C@H](N)C4CCCCC4)cc4c3c2C=NNC4=O)cn1 and give its measured pKi.
7.80

* * *

Target: Fibroblast growth factor receptor 3 (Homo sapiens)
Sequence (P22607 whole entry): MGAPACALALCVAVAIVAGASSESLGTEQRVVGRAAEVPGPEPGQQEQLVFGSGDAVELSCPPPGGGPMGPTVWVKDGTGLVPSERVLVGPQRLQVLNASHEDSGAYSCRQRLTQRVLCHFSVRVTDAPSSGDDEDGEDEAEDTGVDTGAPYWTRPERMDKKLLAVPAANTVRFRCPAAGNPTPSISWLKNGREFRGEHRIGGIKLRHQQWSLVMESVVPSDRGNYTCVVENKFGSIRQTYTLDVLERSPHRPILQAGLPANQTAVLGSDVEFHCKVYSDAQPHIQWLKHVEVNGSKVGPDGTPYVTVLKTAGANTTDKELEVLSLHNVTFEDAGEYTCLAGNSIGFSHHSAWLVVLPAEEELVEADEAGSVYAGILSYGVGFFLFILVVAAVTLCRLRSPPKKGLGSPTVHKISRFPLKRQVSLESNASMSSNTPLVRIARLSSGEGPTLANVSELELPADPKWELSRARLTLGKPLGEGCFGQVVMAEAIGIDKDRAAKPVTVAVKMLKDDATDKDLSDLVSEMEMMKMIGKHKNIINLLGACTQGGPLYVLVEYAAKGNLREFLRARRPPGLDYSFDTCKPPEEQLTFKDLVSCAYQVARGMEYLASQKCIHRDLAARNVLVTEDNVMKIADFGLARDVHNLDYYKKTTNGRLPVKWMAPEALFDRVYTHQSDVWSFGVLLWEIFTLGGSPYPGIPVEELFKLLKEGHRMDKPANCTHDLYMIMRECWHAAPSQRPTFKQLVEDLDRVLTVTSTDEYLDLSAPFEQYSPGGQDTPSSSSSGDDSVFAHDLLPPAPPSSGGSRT
MEASURED PARAMETER: pIC50
Note on pIC50: it is the negative log10 of concentration, concentration in mol/L.

Give Fibroblast growth factor receptor 3 (Homo sapiens) pIC50 for Cn1cc(-c2[nH]c3cc(NC(=O)[C@H](N)C4CCCCC4)cc4c3c2C=NNC4=O)cn1
7.33

* * *

Molecular target: Proto-oncogene tyrosine-protein kinase receptor Ret (Homo sapiens)
Sequence (P07949 whole entry): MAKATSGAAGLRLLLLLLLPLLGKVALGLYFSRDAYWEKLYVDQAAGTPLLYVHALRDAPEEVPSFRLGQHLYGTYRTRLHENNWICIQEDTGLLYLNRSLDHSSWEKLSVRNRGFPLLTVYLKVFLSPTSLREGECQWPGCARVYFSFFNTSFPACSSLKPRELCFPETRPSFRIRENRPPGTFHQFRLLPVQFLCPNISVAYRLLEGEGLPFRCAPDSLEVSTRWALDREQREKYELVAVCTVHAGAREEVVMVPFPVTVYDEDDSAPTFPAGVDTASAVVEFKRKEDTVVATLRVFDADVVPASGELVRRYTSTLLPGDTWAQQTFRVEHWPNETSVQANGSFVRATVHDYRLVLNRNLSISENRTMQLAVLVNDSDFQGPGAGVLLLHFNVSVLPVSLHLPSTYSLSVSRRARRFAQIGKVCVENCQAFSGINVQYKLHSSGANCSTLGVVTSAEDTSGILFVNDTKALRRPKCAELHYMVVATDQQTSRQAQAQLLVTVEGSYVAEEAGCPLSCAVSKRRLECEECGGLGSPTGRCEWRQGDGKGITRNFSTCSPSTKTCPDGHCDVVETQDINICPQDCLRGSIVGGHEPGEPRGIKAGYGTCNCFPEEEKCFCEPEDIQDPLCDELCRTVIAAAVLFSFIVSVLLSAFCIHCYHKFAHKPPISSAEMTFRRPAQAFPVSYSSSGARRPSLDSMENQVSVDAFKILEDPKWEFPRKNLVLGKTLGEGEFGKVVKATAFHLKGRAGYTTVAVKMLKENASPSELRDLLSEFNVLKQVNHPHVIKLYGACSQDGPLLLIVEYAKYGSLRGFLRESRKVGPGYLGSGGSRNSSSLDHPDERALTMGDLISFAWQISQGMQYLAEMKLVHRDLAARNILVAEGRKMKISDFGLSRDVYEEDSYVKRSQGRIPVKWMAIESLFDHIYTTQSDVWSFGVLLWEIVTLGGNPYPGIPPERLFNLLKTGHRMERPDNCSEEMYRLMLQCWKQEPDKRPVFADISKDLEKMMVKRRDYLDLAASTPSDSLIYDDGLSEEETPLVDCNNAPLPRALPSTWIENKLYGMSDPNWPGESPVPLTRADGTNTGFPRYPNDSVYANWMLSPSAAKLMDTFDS
MEASURED PARAMETER: IC50 (nM)
Response body: numeric value in nM, unit text excluded.

Consider the compound Cn1cc(-c2[nH]c3cc(NC(=O)[C@H](N)C4CCCCC4)cc4c3c2C=NNC4=O)cn1 and give its measured IC50.
80

* * *

Experiment: AUC (0 to infinity) in Sprague-Dawley rat at 4 mg/kg, iv administered as bolus dose by LCMS analysis
Type: ADME, organism-based
Details: in vivo
MEASURED PARAMETER: AUC(0-inf) (ng·h/mL)
Response body: numeric value in ng·h/mL, unit text excluded.

Consider the molecule Cn1cc(-c2[nH]c3cc(NC(=O)[C@H](N)C4CCCCC4)cc4c3c2C=NNC4=O)cn1 and give its measured AUC(0-inf).
5720
